# Tested on: MDA-MB-468 breast
# Method Description: NCI-60 one-dose screen, 48 h (100 = growth as untreated, 0 = no growth, -100 = all killed)
# Condition Label: 10 µM unless noted
The panel holds about 83,000 compounds, 20% with a hit somewhere; the sample as a whole holds those more often.
Measured Endpoint: growth (%)

> print(dat)
                                   molecule  measured.endpoint  numeric.result
1  CCSCC1CC(O)(c2ccccc2)C(c2ccccc2)C(c2ccc(F)cc2)O1 (stereo not given)             growth             -18
2  CCCCCCCC/C=C\CCCCCCCC(=O)Oc1cccc2cccnc12             growth             121
3      O=C1/C(=C/c2ccc(F)cc2)COc2ccc(O)cc21             growth            86.4
4  O=C1/C(=C\c2cn(CC(O)CN3CCCCC3)c3ccccc23)c2ccccc2N1c1c(Cl)cccc1Cl (stereo not given)             growth           -93.3
5  Cc1ccc(C(C(N)=O)C(C(N)=O)c2ccccc2)cc1 (stereo not given)             growth             105

Where these numbers come from: PubChem BioAssay (NCI)
